Provide the recorded MIC for the entries that follow.
System: Bacillus subtilis
experiment: Antibacterial activity against Bacillus subtilis ATCC 6633 assessed as inhibition of bacterial growth incubated for 16 hrs by microdilution method
Format: functional
Numbers only, in µg/mL.

mol smiles	value type	observed
CC[C@@](C)(NC(=O)[C@H](CCC(N)=O)NC(=O)CNC(=O)C(C)(C)NC(=O)C(C)(C)NC(=O)[C@H](C)NC(=O)C(C)(C)NC(=O)CNC(=O)C(C)(C)NC(=O)[C@H](CCC(N)=O)NC(=O)C(C)(C)NC(=O)[C@H](Cc1c[nH]c2ccccc12)NC(C)=O)C(=O)N1C[C@H](O)C[C@H]1C(=O)NC(C)(C)C(=O)N1CCC[C@H]1C(=O)N[C@H](CO)Cc1ccccc1	MIC	32
C/C(=C\Cc1c(O)c(Cl)c(C)c(C=O)c1O)CC/C=C(\C)[C@@H]1CC(=O)C(C)(C)O1	MIC	16

If you can, please state the reported MIC value of CC[C@@](C)(NC(=O)CNC(=O)[C@@](C)(CC)NC(=O)[C@H](CCC(N)=O)NC(=O)C(C)(C)NC(=O)[C@H](Cc1c[nH]c2ccccc12)NC(C)=O)C(=O)N[C@@H](C)C(=O)NC(C)(C)C(=O)NC(C)(C)C(=O)NCC(=O)N[C@@H](CCC(N)=O)C(=O)N[C@](C)(CC)C(=O)N1C[C@H](O)C[C@H]1C(=O)NC(C)(C)C(=O)N1CCC[C@H]1C(=O)N[C@H](CO)Cc1ccccc1 . 16

====

System: Staphylococcus aureus
experiment: Antibacterial activity against Staphylococcus aureus ATCC 25923 assessed as inhibition of bacterial growth incubated for 16 hrs by microdilution method
Assay type: functional
Non-standard residues stand in square brackets, D forms with d. Residues, ends and D or L forms follow the SMILES beside them. Hyp = O=C(O)[C@@H]1C[C@@H](O)CN1; Phe(ol) = N[C@H](CO)Cc1ccccc1; Aib = CC(C)(N)C(=O)O
For each of the molecules below, state its MIC.

I have 2 molecules here; please give me MIC for each one.
1. CC(=O)N[C@@H](Cc1c[nH]c2ccccc12)C(=O)NC(C)(C)C(=O)N[C@@H](CCC(N)=O)C(=O)NC(C)(C)C(=O)NCC(=O)NC(C)(C)C(=O)N[C@@H](C)C(=O)NC(C)(C)C(=O)NC(C)(C)C(=O)NCC(=O)N[C@@H](CCC(N)=O)C(=O)NC(C)(C)C(=O)N1C[C@H](O)C[C@H]1C(=O)NC(C)(C)C(=O)N1CCC[C@H]1C(=O)N[C@H](CO)Cc1ccccc1 (Ac-W[Aib]Q[Aib]G[Aib]A[Aib][Aib]GQ[Aib][Hyp][Aib]P[Phe(ol)])
2. CC(/C=C/[C@@]1(C)[C@H](C)CC[C@@H](O)[C@@H]1C)=C\Cc1c(O)c(Cl)c(C)c(C=O)c1O

1: > 128 mg/L; 2: 16 mg/L

So what's the measured MIC for this one? CC[C@@](C)(NC(=O)CNC(=O)[C@@](C)(CC)NC(=O)[C@H](CCC(N)=O)NC(=O)C(C)(C)NC(=O)[C@H](Cc1c[nH]c2ccccc12)NC(C)=O)C(=O)N[C@@H](C)C(=O)NC(C)(C)C(=O)NC(C)(C)C(=O)NCC(=O)N[C@@H](CCC(N)=O)C(=O)NC(C)(C)C(=O)N1C[C@H](O)C[C@@H]1C(=O)NC(C)(C)C(=O)N1CCC[C@H]1C(=O)N[C@H](CO)Cc1ccccc1 > 128 mg/L
